From: PubChem BioAssay (NCATS)

procedureSummary: Confirmatory screen NINDS Rhodamine qHTS for Zika virus inhibitors (AID 1347161); also: nearly all actives have a fitted effect of over 60% in size; also: potency is read from the fitted curve at half-maximal effect
testContext: purified enzyme assay, Rhodamine110 substrate fluorescence, 15 min; series mostly up to 114 µM
Inconclusive results are not listed. The source made the active and inactive calls. Calls follow the shape of the dose curve; as a rule, active = well fitted inhibition curve with a large enough effect; inconclusive = small, poorly fitted or top-dose-only effect; inactive = no such curve, though single readings can be large or run the other way.
measure: Potency

Take a look at these entries with their results.
| structureNotation | measure | observedValue |
| --- | --- | --- |
| CCCCc1ccc(C(=O)Nc2cc(-c3ccc(Cl)cc3)nn2-c2ccc(Cl)cc2)cc1 | Potency | inactive |
| C=C[C@H]1[C@H](O[C@@H]2O[C@H](CO)[C@@H](O)[C@H](O)[C@H]2O)OC=C(C(=O)OC)[C@H]1CCOC(=O)c1cc(O)c(O)c(O)c1 | Potency | 10.8 µM (active) |
| O=C(Nc1ccc(S(=O)(=O)Nc2nccs2)cc1)C(c1ccccc1)c1ccccc1 | Potency | 4.41 µM (active) |
| COc1cc(Nc2nc3ccccc3nc2NS(=O)(=O)c2ccc(NC(=O)c3ccc(OC)c(C)c3)cc2)cc(OC)c1 | Potency | 2.78 µM (active) |
| Nc1ncnc2c([C@@H]3N[C@H](CO)[C@@H](O)[C@H]3O)c[nH]c12 | Potency | inactive |

We now examine a further compound.
Input: Recorded Potency of C#CCN(Cc1cc2c(=O)[nH]c(C)nc2cc1Br)c1ccc(C(=O)NCc2cccnc2)cc1 , please.
Output: 31.2 µM (active)
